List of Cholesterol-free values.
# System: NCI-H292 lung cancer cells
# test_name: FDA drug screening, complete media vs cholesterol-free media without statin (TABLE 1)
# Type: cell-based, human
# measurement_conditions: NCI-H292 cells, cholesterol-free media without statin
Please give the numeric answer without any surrounding text.

Example results:
- CC(=O)O[C@]1(C(C)=O)CC[C@H]2[C@@H]3C[C@H](C)C4=CC(=O)C=C[C@]4(C)[C@@]3(F)[C@@H](O)C[C@@]21C [Fluorometholone acetate]: 0.9866
- CNC(=O)c1cc(Oc2ccc(NC(=O)Nc3ccc(Cl)c(C(F)(F)F)c3)c(F)c2)ccn1 [Regorafenib (monohydrate)]: 1.026
- CCC[C@@H]1C[C@@H](C(=O)N[C@@H]([C@H]2O[C@H](SC)[C@H](OP(=O)(O)O)[C@@H](O)[C@H]2O)[C@H](C)Cl)N(C)C1 [Clindamycin (phosphate)]: 1.342
- O=c1ccn([C@@H]2O[C@H](CO)[C@@H](O)[C@H]2O)c(=O)[nH]1: 1.404

Can you look up the measured Cholesterol-free of CCOC(=O)c1cncn1[C@H](C)c1ccccc1 [Etomidate] for me?
1.122

Look at this compound and give its reported Cholesterol-free. O=C(O)CCCN1CCC(O[C@@H](c2ccc(Cl)cc2)c2ccccn2)CC1 [Bepotastine (besilate)]
1.237

Give its Cholesterol-free value. Item: CCC(CC)[C@H](NC(C)=O)[C@@H]1[C@H](O)[C@@H](C(=O)O)C[C@H]1NC(=N)N.O.O.O [Peramivir (trihydrate)]
2.062

----------
# System: NCI-H292 lung cancer cells
# test_name: FDA drug screening, complete media vs cholesterol-free media with simvastatin (TABLE 2)
# Type: cell-based, human
# measurement_conditions: NCI-H292 cells, FDA library drug in cholesterol-free media with simvastatin 0.04 μM
readout_kind: Cholesterol-free media + simvastatin (0.04 μM)

- OC[C@@H](O)[C@@H](O[C@H]1O[C@H](CO)[C@@H](O)[C@H](O)[C@H]1O)[C@H](O)[C@@H](O)CO: 1.264

Please look up its Cholesterol-free media + simvastatin (0.04 μM): "CNCc1cc(-c2ccccc2F)n(S(=O)(=O)c2cccnc2)c1"
1.249

Entry Cc1nc2n(c(=O)c1CCN1CCC(c3noc4cc(F)ccc34)CC1)CCCC2O (stereo not shown) : reported Cholesterol-free media + simvastatin (0.04 μM) = ?
1.086

Give the measured Cholesterol-free media + simvastatin (0.04 μM) of "COc1ccc(-c2cc(=S)ss2)cc1" .
1.972

Cholesterol-free media + simvastatin (0.04 μM) for O=C(COc1ccc(Cl)cc1)N1CCN(Cc2ccc3c(c2)OCO3)CC1 [Fipexide] ?
1.655

Please report the recorded Cholesterol-free media + simvastatin (0.04 μM) for "Nc1nc(N)c2nc(-c3ccccc3)c(N)nc2n1" .
1.582

# Cholesterol-free media + simvastatin (0.04 μM) lookup, item CC(=O)O[C@]1(C(C)=O)CC[C@H]2[C@@H]3C=C(C)C4=CC(=O)CC[C@]4(C)[C@H]3CC[C@@]21C [Megestrol acetate]
1.252

Value lookup for Cholesterol-free media + simvastatin (0.04 μM); key = "CO[C@@]1(NC(=O)Cc2cccs2)C(=O)N2C(C(=O)O)=C(COC(N)=O)CS[C@@H]21"
1.841

Name the recorded Cholesterol-free media + simvastatin (0.04 μM) for NC[C@H]1O[C@H](O[C@H]2[C@H](O[C@@H]3O[C@H](CO)[C@@H](O)[C@H]3O)[C@@H](O)[C@H](N)C[C@@H]2N)[C@H](N)[C@@H](O)[C@@H]1O.O=S(=O)(O)O [Ribostamycin (sulfate)] .
1.833

----------
# System: NCI-H292 lung cancer cells
# test_name: FDA drug screening, complete media vs cholesterol-free media without statin (TABLE 1)
# Assay type: cell-based, human
# measurement_conditions: NCI-H292 cells in cholesterol-free media without statin
Structures can show the parent of a compound that is named as a salt.
readout_kind: Cholesterol-free
Number only, no unit.

Some solved cases for reference:
- Nc1cc(-c2ccncc2)c[nH]c1=O: 1.339
- CC(Oc1c(Cl)cccc1Cl)C1=NCCN1 (stereo not shown) [Lofexidine (hydrochloride)]: 1.453
- NC(=O)c1ccccc1O [Salicylamide]: 1.486
- Clc1ccccc1C(c1ccccc1)(c1ccccc1)n1ccnc1: 1.485
- CN1CCCN=C1/C=C/c1cccc(O)c1.O=C(O)c1cc2ccccc2c(Cc2c(O)c(C(=O)O)cc3ccccc23)c1O [Oxantel (pamoate)]: 1.526

--- query ---
# query: Cholesterol-free of entry CC(=O)O[C@]1(C(C)=O)CC[C@H]2[C@@H]3C=C(Cl)C4=CC(=O)[C@@H]5C[C@@H]5[C@]4(C)[C@H]3CC[C@@]21C [Cyproterone acetate]
2.754

----------
# Test system: NCI-H292 lung cancer cells
# test_name: FDA drug screening, complete media vs cholesterol-free media with simvastatin (TABLE 2)
# Assay type: cell-based, human
# measurement_conditions: complete media vs cholesterol-free media + simvastatin (0.04 μM); >0 enhanced anti-cancer activity, about 0 neutral, <0 antagonist
Where a name gives a salt, the structure may show the parent alone.
// values below are reported Difference
Give the value as a plain number.

Example entries begin here.
- CC(C)(C)NCC(O)COc1ccccc1C1CCCC1 (single isomer, unassigned; (+)) [(+)-Penbutolol]: −0.20
- COc1cc(N2CCC(N3CCN(C)CC3)CC2)ccc1Nc1ncc(Cl)c(Nc2ccccc2P(C)(C)=O)n1 [Brigatinib]: −0.21
- COCCOC(=O)C1=C(C)NC(C)=C(C(=O)OC/C=C/c2ccccc2)C1c1cccc([N+](=O)[O-])c1 (stereo not shown) [Cilnidipine]: −0.18
- CC(COc1ccccc1)NC(C)C(O)c1ccc(O)cc1 (stereo not shown) [Isoxsuprine hydrochloride]: −0.21

GET /values?readout=Difference&item= CCOC(=O)OC(C)OC(=O)[C@@H]1N2C(=O)[C@@H](NC(=O)[C@H](N)c3ccccc3)[C@H]2SC1(C)C (stereo partly shown) [Bacampicillin (hydrochloride)]
−0.09

# input compound: Oc1ccc(OCc2ccccc2)cc1 [Monobenzone] ; wanted: its Difference
−0.09

Fill blank: measured Difference of the compound CC1CCCC(C)N1CCCC(O)(c1ccccc1)c1ccccn1 (stereo not shown) [Pirmenol (hydrochloride)] is ____.
−0.12

Which Difference value belongs to O=C1OC(c2ccc(O)cc2)(c2ccc(O)cc2)c2ccccc21 [Phenolphthalein] ?
−0.24

Would you kindly share the measured Difference for CC(=O)[C@H]1CC[C@H]2[C@@H]3CCC4=CC(=O)CC[C@]4(C)[C@H]3CC[C@]12C [Progesterone] ?
−0.13

Report Difference for COc1ccc2[nH]c([S+]([O-])Cc3ncc(C)c(OC)c3C)nc2c1 (stereo not shown) [Omeprazole] please.
−0.17

Field request: Difference | item: C=C1[C@H](CO)[C@@H](O)C[C@@H]1n1cnc2c(=O)[nH]c(N)nc21 [Entecavir (monohydrate)]
−0.20

Recorded Difference of O=[N+]([O-])c1cn2c(n1)OC[C@@H](OCc1ccc(OC(F)(F)F)cc1)C2 [Pretomanid] , please.
−0.35

# get_value(readout='Difference', item= CN(C)CCOCC(=O)NC12CC3CC(CC(C3)C1)C2 [Tromantadine (hydrochloride)] )
−0.25

Given Cn1cnc2c(F)c(Nc3ccc(Br)cc3F)c(C(=O)NOCCO)cc21 [Binimetinib] , state its recorded Difference.
−0.11

Quick one: Difference for CCN(CC)CCOC(=O)c1ccc(N)cc1Cl [Chloroprocaine (hydrochloride)] ?
−0.28

Given COc1cc2nc(N3CCN(C(=O)c4ccco4)CC3)nc(N)c2cc1OC [Prazosin (hydrochloride)] , state its recorded Difference.
−0.15

----------
# Tested on: NCI-H292 lung cancer cells
# test_name: FDA drug screening, complete media vs cholesterol-free media without statin (TABLE 1)
# Format: cell-based, human
# measurement_conditions: Complete minus Cholesterol-free; >0 enhanced anti-cancer activity, about 0 neutral, <0 antagonist
Reported Difference values follow for various compounds

Example cases with answers are listed next.
* COc1cc(C(=O)NS(=O)(=O)c2ccccc2C)ccc1Cc1cn(C)c2ccc(NC(=O)OC3CCCC3)cc12 | 0.05
* C[N+]1(C)CCC(OC(=O)C(O)(c2ccccc2)C2CCCC2)C1 (stereo not drawn) [Glycopyrrolate] | 0.02
* CC(C)OC(=O)C(C(=O)OC(C)C)=C1SC=CS1 [Malotilate] | −0.31
* N[C@@H](CSCC(=O)O)C(=O)O [Carbocisteine] | −0.04
* Cc1nccn1CC1CCc2c(c3ccccc3n2C)C1=O (stereo not drawn) | −0.05
* COC(=O)N(C)c1c(N)nc(-c2nn(Cc3ccccc3F)c3ncccc23)nc1N | −0.22

Looking for the measured Difference of "CCN(CC)CCNC(=O)c1c(C)[nH]c(/C=C2\C(=O)Nc3ccc(F)cc32)c1C" , can you help?
−0.01

I would be grateful if you could share the reported Difference for CC(C)NCC(O)COc1ccc(CC(N)=O)cc1 (stereo not drawn) .
−0.26

Quick one: Difference for "Cn1c(=O)cc(N2CCC[C@@H](N)C2)n(Cc2cc(F)ccc2C#N)c1=O" ?
−0.22

Tell me the measured Difference of "COc1ccc(O)cc1" , please.
−0.26

# query: Difference of entry "COc1ccc2[nH]cc(CCNC(C)=O)c2c1"
0.05

Could you share which Difference value was measured for "COc1c(C)c2c(c(O)c1C/C=C(\C)CCC(=O)O)C(=O)OC2" ?
−0.06

Fill blank: measured Difference of the compound "Cc1cnc(C(=O)N[C@H]2CCCCC/C=C\[C@@H]3C[C@@]3(C(=O)NS(=O)(=O)C3CC3)NC(=O)[C@@H]3C[C@@H](Oc4nc5ccccc5c5ccccc45)CN3C2=O)cn1" is ____.
−0.03

What measured Difference goes with CC(C(=O)O)c1cccc(Oc2ccccc2)c1 (stereo not drawn) [Fenoprofen (Calcium hydrate)] ?
−0.23

Looking for the measured Difference of "CCCN(CCc1cccs1)[C@H]1CCc2c(O)cccc2C1" , can you help?
0.07

State the recorded Difference for this entry: "C[C@H](CS)C(=O)N1CCC[C@H]1C(=O)O"
−0.19

Looking for the measured Difference of "O=c1[nH]c(=O)n([C@H]2C[C@H](O)[C@@H](CO)O2)cc1F" , can you help?
−0.01

GET /values?readout=Difference&item= "CC(C)c1nc(CN(C)C(=O)N[C@H](C(=O)N[C@@H](Cc2ccccc2)C[C@H](O)[C@H](Cc2ccccc2)NC(=O)OCc2cncs2)C(C)C)cs1"
−0.25
